Let's look at some compounds and their measured logP.
// return a plain number; no unit text

Some compounds with recorded logP:
| compound | logP |
| --- | --- |
| CC(C)c1cccc(C(C)C)c1NC(=O)CC(=O)c1ccccc1 | 2.87 |
| CCCC1C(=O)N(CCN(C)C)c2ccccc2CC1c1ccc(OC)cc1 (configuration not stated) | 5.6 |
| CC(C)(C)c1ccc(OCC2CN=C(N)O2)cc1 (configuration not stated) | 2.84 |
| c1ccc(CCCCNc2[nH]cnc3ncnc2-3)cc1 | 3.29 |
| CNc1ccc2cc3ccc4c(c3nc2c1CO)COCN4 | 1.65 |

Query compound follows.
Reported logP of C1CCC2OC2C1 (configuration not stated) : 1.26

Values were extracted from the OPERA property sets (Mansouri et al. 2018).
